B1: 5KPH (parent)
chain: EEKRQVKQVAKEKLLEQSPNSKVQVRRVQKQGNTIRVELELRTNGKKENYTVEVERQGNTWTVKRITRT

Variants of: B1
method.notes: folding stability dG (cDNA display proteolysis); higher = more stable
test.settings: PBS, room temperature
Give measured folding stability dG for each item. Keep answers brief.
One number for each entry, in kcal/mol.

Examples with answers:
Q57R :: 3.73
T60I :: 4.11
V25K :: 1.3
E38Q :: 3.76
V52Y :: 1.78
R65Q :: 3.84
R42G :: 3.04
I35A :: 3.73
N20M :: 3.58
T69G :: 3.7

For the 7 variants below, give their folding stability dG values.
1. N33E
2. V54H
3. K11H
4. E2P
5. R56S
6. T34E
7. L15D

Marked response:
3.68
0.815
2.85
2.94
3.26
2.99
2.07

For the 4 variants below, give their folding stability dG values.
1. G45S
2. K13F
3. E38H
4. K47T

Marked response:
1. 3.75
2. 3.99
3. 4.14
4. 4.05
